Data provenance: ChEMBL document CHEMBL1201862

system: T47D; assay: NCI tumour cell line growth inhibition, 48 h
Calls of active or inactive are those of the source. Cut-off read from the data, not from the text of the source: active = GI50 up to about 1.1 µM and inactive = higher.

Compound: COC(=O)C(Cc1c(-c2[nH]c3ccccc3c2CC(NC(C)=O)C(=O)OC)[nH]c2ccccc12)NC(C)=O (stereo not drawn)
GI50: > 100 µM (inactive)
//
Compound: Nc1cccc(S(=O)(=O)Nc2nnc(S(N)(=O)=O)s2)c1
GI50: > 100 µM (inactive)
//
Compound: Cc1ccc2c(O)cc(-c3ccc(F)cc3)nc2n1
GI50: 41.9 µM (inactive)
//
Compound: N#CCCSC(=S)C1CCCC1=N (stereo not drawn)
GI50: 36 µM (inactive)
//
Compound: CCOC(=O)c1c(C)c(C)n2c1NC(=O)C2
GI50: 21.1 µM (inactive)
//
Compound: Cc1cc2c(c3c1c1ccccc1n3C)C(=O)C=CC2=O
GI50: 13 µM (inactive)
//
Compound: CCOC(=O)c1cc2ncccc2c2ccccc12
GI50: > 100 µM (inactive)
//
Compound: Cc1ccc(S(=O)(=O)OC2C3OC(C)(C)OC3OC2C(c2cc(O)c3c(c2O)C(=O)c2ccccc2C3=O)c2cc(O)c3c(c2O)C(=O)c2ccccc2C3=O)cc1 (stereo not drawn)
GI50: > 10 µM (inactive)
//
Compound: O=[N+]([O-])c1cccc(/N=C2\c3ccccc3CN2c2cccc([N+](=O)[O-])c2)c1
GI50: > 100 µM (inactive)
//
Compound: CCOC(=O)c1nnsc1NN=C(C)C
GI50: > 100 µM (inactive)
//
Compound: COc1cc(C(=O)CBr)c(OC)cc1C
GI50: > 100 µM (inactive)
//
Compound: COc1ccc(C2=C(N)c3cc(OC)ccc3C2=O)cc1
GI50: 36.7 µM (inactive)
//
Compound: N#C/C(=C\n1ccc(=O)[nH]c1=S)C(N)=O
GI50: > 100 µM (inactive)

====

test system: KM12; experiment: NCI tumour cell line growth inhibition, 48 h
Active and inactive are the calls of the source. No stated cut-off is given here; in the data, active = GI50 up to about 1.1 µM and inactive = higher.
Assay Endpoint: GI50

Compound Smiles: Cc1ccc2c(O)cc(-c3ccc(F)cc3)nc2n1
Observed Result: 22.4 µM (inactive)

Compound Smiles: O=C(O)c1nnsc1-c1ccc(-c2snnc2C(=O)O)cc1
Observed Result: > 100 µM (inactive)

Compound Smiles: COc1ccc(/C=C2\Cc3ccccc3C2=O)cc1OC
Observed Result: > 100 µM (inactive)

====

system: CCRF-CEM; test: NCI tumour cell line growth inhibition, 48 h
The source made the active and inactive calls. No stated cut-off is given here; in the data, active = GI50 up to about 1.1 µM and inactive = higher.
Possible outcomes: active, inactive

Molecule: C[n+]1ccccc1/C1=c2\cc/c([nH]2)=C(\c2cccc[n+]2C)C2=N/C(=C(/c3cccc[n+]3C)C3C=CC(N3)/C(c3cccc[n+]3C)=C3/C=CC1=N3)C=C2
Label: inactive

Molecule: Oc1ccccc1/C=N/c1ccc(Oc2ccc(Cl)cc2)c(Cl)c1
Label: inactive

Molecule: OC12C3C4CC5C(C4[C@@H]1Br)C2[C@@](O)(c1c(F)c(F)c(F)c(F)c1F)C53 (some centres not stated)
Label: inactive

Molecule: C=C(Br)CN(C(C)=O)C1CCCCC1
Label: inactive

Molecule: O=c1ccn(-c2ccccn2)c(=O)n1-c1ccccn1
Label: inactive

Molecule: COC(=O)CCC(=O)NC1c2cccc3cccc(c23)Cn2c(=O)n(C)c(=O)n21 (configuration not stated)
Label: inactive

Molecule: COC(=O)C(=O)C(C(=O)C(=O)Nc1cccc([N+](=O)[O-])c1)c1nc2ccc(Cl)cc2nc1O (configuration not stated)
Label: inactive

Molecule: COc1ccc(-c2nc(N3CCCC3)no2)cc1
Label: inactive

Molecule: CCCn1c2ccccc2c2ccc3c(c21)C(=O)C=CC3=O
Label: active

Molecule: COC1CC(n2ccc(=O)[nH]c2=O)OC1CO (configuration not stated)
Label: inactive

Molecule: CCOc1ccc(N/C(=C(/C(Cl)=C(/Cl)NCCN)[N+](=O)[O-])n2nnc3ccccc32)cc1
Label: inactive

Molecule: Cc1cn(C2CC(N=[N+]=[N-])C(CO)O2)c(=O)n(CCCCO)c1=O (configuration not stated)
Label: inactive

Molecule: O=C(CSCC(=O)N/N=C\c1ccccc1F)N/N=C\c1ccccc1F
Label: inactive

Molecule: Fc1ccc(C(OCCN2CCC3CCC(C2)N3C/C=C/c2cccs2)c2ccc(F)cc2)cc1 (configuration not stated)
Label: inactive

Molecule: COc1ccc(/C=C/C(=O)C(C)(C)C)cc1OC
Label: inactive

Molecule: Cn1c(CBr)nc2c1C(=O)c1nc(CBr)[nH]c(=O)c1C2=O
Label: inactive

Molecule: COc1ccc(C(=O)/C=C2\C(=O)Nc3ccc(Br)cc32)cc1
Label: inactive

Molecule: Cc1nn(-c2ccccc2)c2c1C(c1cc3ccccc3nc1Cl)NC(=O)N2 (configuration not stated)
Label: inactive

Molecule: COC(=O)c1sc(C(=O)OC)c2c1CSC2
Label: inactive

Molecule: COc1cc(/C=C2\N=C(c3ccccc3)N(c3nc4c(Cl)cc(Cl)cc4s3)C2=O)ccc1O
Label: inactive

Molecule: Cc1ccc2sc3ccc(N)cc3c(=O)c2c1
Label: inactive

Molecule: COC(=O)c1ccc(C(=O)NC(Cc2ccc(Oc3cc(CC(NC(=O)c4ccccc4C(=O)OC)C(=O)OC)ccc3OC)cc2)C(=O)OC)cc1 (configuration not stated)
Label: inactive

Molecule: C/C=C1/CN2CCC34C5=CC(=O)C(c6cc7c(cc6OC)N(C)C6=C(C(=O)OC)CC8(CC)CCCN9CCC67C98)=CC5=NC23CCC1C4C(=O)OC (configuration not stated)
Label: inactive

Molecule: c1coc(CNc2[nH]cnc3nncc2-3)c1
Label: inactive

Molecule: CC(=O)OCC12CCC3C4(C)CCCC(C)(C)C4CCC3(C)C1CC(C1=CC(=O)OC1O)O2 (configuration not stated)
Label: active

Molecule: CCn1c2ccccc2c(=O)c2c(OC)ccc(OC)c21
Label: inactive

Molecule: Cc1nn(-c2cc(Cl)ccc2[N+](=O)[O-])c(C)c1Cl
Label: inactive

====

tested on: UO-31; test: NCI tumour cell line growth inhibition, 48 h
Active and inactive are the calls of the source. No stated cut-off is given here; in the data, active = GI50 up to about 1.1 µM and inactive = higher.
Possible outcomes: active, inactive

Compound: CCOC(=O)c1ccc(NC(=O)O/N=C(/Cl)CC)cc1
Label: inactive
//
Compound: CC[C@@]1(O)C(=O)OCc2c1cc1n(c2=O)Cc2cc3cc(OC)ccc3nc2-1
Label: active
//
Compound: CCCn1c2ccccc2c2ccc3c(c21)C(=O)C=CC3=O
Label: inactive
//
Compound: Cc1cc2c(=O)c3ccccc3[nH]c2c(C(N)=O)c1C
Label: inactive
//
Compound: CCCCCCCCCCCCCCCCCC(=O)NCC(COP(=O)(O)O)OCC (stereo not drawn)
Label: inactive
//
Compound: CCC1=CCN(c2cc(C)ccn2)OC1c1ccccc1 (stereo not drawn)
Label: inactive
//
Compound: COC(=O)C(=O)C(C(=O)C(=O)Nc1cccc([N+](=O)[O-])c1)c1nc2ccc(Cl)cc2nc1O (stereo not drawn)
Label: inactive
//
Compound: Cc1ccc(S(=O)(=O)N/N=C2\CC3C4CCC3C2C4)cc1 (stereo not drawn)
Label: inactive
//
Compound: COC1CC(CC2CCC(C)C(C(C)C(=O)O)O2)OC2(OC(C)(C3CCC(C)(C4OC(C5OC(O)(CO)C(C)CC5C)CC4C)O3)CC2C)C1C (stereo not drawn)
Label: inactive
//
Compound: CCN(CC)c1ccc2nc3ccc(/N=N/c4c(O)ccc5ccccc45)cc3[n+](-c3ccccc3)c2c1
Label: inactive
//
Compound: CCOC(=O)c1c(C)c(C)n2c1NC(=O)C2
Label: inactive
//
Compound: O=c1[nH]n(CCc2ccccc2CCl)c2ccc([N+](=O)[O-])cc12
Label: inactive
//
Compound: CN(C)C(=Nc1nc(N(C)C)s[s+]1)N(C)C
Label: inactive
//
Compound: COC(=O)C1=C(O)C(C(=O)OC)[C@]2(O)[C@H](C(=O)OC)[C@H]1C[C@@H](c1ccc(C(F)(F)F)cc1)[C@H]2C(=O)OC (stereo partly drawn)
Label: inactive
//
Compound: Cc1ccc(S(=O)(=O)NNC(=O)c2cc(C)c(C)cc2N)cc1
Label: inactive
//
Compound: N=C(N)Nc1ccc(CC(N)C(=O)O)cc1 (stereo not drawn)
Label: inactive
//
Compound: Cc1ccc2sc3ccc(N)cc3c(=O)c2c1
Label: inactive
//
Compound: COc1cc(/C=C2\N=C(c3ccccc3)N(c3nc4c(Cl)cc(Cl)cc4s3)C2=O)ccc1O
Label: inactive

====

test system: SNB-75; experiment: NCI tumour cell line growth inhibition, 48 h
Active and inactive are the calls of the source. No stated cut-off is given here; in the data, active = GI50 up to about 1.1 µM and inactive = higher.
Possible outcomes: label 1 for active, label 0 for inactive

Compound: COC12C=CC(C=C1C#N)CC2.COC12C=CC(CC1)CC2=O (centres undefined)
Label: label 0
//
Compound: COC1CC2CCC(C)[C@](O)(O2)C(=O)C(=O)N2CCCCC2C(=O)OC(C(C)CC2CCC(O)C(OC)C2)CC(=O)C(C)C=C(C)C(OC(=O)CN(C)C)C(OC)C(=O)C(C)CC(C)/C=C/C=C/C=C\1C (some centres undefined)
Label: label 1
//
Compound: CCCn1c2ccccc2c2ccc3c(c21)C(=O)C=CC3=O
Label: label 0
//
Compound: CC(=O)Nc1ccc(-c2nnc(SCC(=O)Nc3ccc(Cl)cc3Cl)o2)cc1
Label: label 0
